System: SF-295
Assay: NCI tumour cell line growth inhibition, 48 h
Activity calls are given as the source filed them. Rule as the data show it: active = GI50 up to about 1.1 µM and inactive = higher.
# valid calls are active, inactive; nothing else

Look over these answered cases.
>  <COMPOUND>
CC12Nc3ccccc3C1=C(c1ccccc1)CC1C(=O)OC(=O)C12 (stereo unspecified)

>  <ASSIGNED LABEL>
inactive

$$$$
>  <COMPOUND>
COc1ccc(-c2nc(N)c3ncn(C4OC(CO)C(O)C4O)c3n2)cc1 (stereo unspecified)

>  <ASSIGNED LABEL>
inactive

$$$$
>  <COMPOUND>
O=C(/C(=C\c1ccccc1)CN1CCOCC1)c1ccc(Br)cc1

>  <ASSIGNED LABEL>
inactive

$$$$

Prompt: Hi team, can someone confirm the assay call for COc1ccc(-n2c(C)nc3ccc(NC4OCC(OC(C)=O)C(OC(C)=O)C4OC(C)=O)cc3c2=O)cc1 (stereo unspecified) ?
Completion: inactive

Prompt: Hi team, can someone confirm the assay call for COc1cccc(N2C(=O)C3c4[nH]c5ccc(C)cc5c4C4CCC(C)CC4C3C2=O)c1 (stereo unspecified) ?
Completion: inactive

Prompt: Hi team, can someone confirm the assay call for O=[N+]([O-])c1ccc(/N=N\c2c(O)ccc3ccccc23)c([N+](=O)[O-])c1 ?
Completion: inactive
